experiment: yeast display, Sf9 membrane polyspecificity reagent, FACS + sequencing; frameworks hold sequencing errors
OBSERVED PROPERTY: polyreactivity (PSR sort gate)

Consider the reported polyreactivity (PSR sort gate) for these sequences:
{"columns": ["ORDERED RESIDUES", "RESULT"],
 "data": [
  ["QVQLVESGGGLVQAGGSLRLSCAASGRIFRYNAMGWYRQAPGKERELVAAITNGGSTNYADSVKGRFTISRDNAKNTVYLQMNSLKPEDTAVYYCAAEGNGYLVSTWWVRYEYWGQGTQVTVSS", "low polyreactivity"],
  ["QDHLVESGGGLVQAGGSLRLSCAASGSISWKNAMGWYRQAPGKERELVAAISSTVTYYADSVKGRFTISRDNAKNTVYLQMNSLKPEDTAVYYCAAVYLGYTTLYTGDYCGQGTQVTVSS", "low polyreactivity"],
  ["QVQLVESGGGLVQAGGSLRLSCAASGRIFARYAMGWYRQAPGKERELVAAISRGGGSTYYADSVKGRFTISRDNAKNTVYLQMNSLKPEDTAVYYCNRLSKQKQEFDYWGQGTQVTVSS", "high polyreactivity"],
  ["QVQLEESGGGLVQAGGSLRLSCAASGRTFYSYAMGWYRQAPGKEREWVAAITSDGGTYYADSVKGRFTISRDNAKNTVYLQMNSLKPEDTAVYYCAAELYYWYYYWGQGTQVTVSS", "low polyreactivity"],
  ["QVQLVESGGGLVQAGGSLRLSCAASGRIINDYTMGWYRQAPGKERELVAAITTSTGSTYADSVKGRFTISRDNAKNTVYLQMNSLKPEDTAVYYCAADSRPGKYYEDDSWGQGTQVTVSS", "low polyreactivity"],
  ["QVQLVESGGGLVQAGGSLRLSCAASGRIILDYAMGWYRQAPGKERELVAAITWRGGSTNYADSVKGRFTISRDNAKNTVYLQMNSLKPEDTAVYYCNADPDDQYDYWGQGTQVTVSS", "low polyreactivity"],
  ["QVQLVESGGGLVQAGGSLRLSCAASGIIFVVNDMGWYRQAPGKERELVADISDSGGSTNYADSVKGRFTISRDNAKNTVYLQMNSLKPEDTAVYYCNADGITSLPVPALDYWGQGTQVTVSS", "low polyreactivity"],
  ["QVQLVESGGGLVQAGGSLRLSCAASGSTFKVNAMGWYRQAPGKERELVAAISRGGSTYADSVKGRFTISRDNAKNTVYLQMNSLKPEDTAVYYCAAKSRYFQPDEYYYWGQVTQVTVSS", "high polyreactivity"],
  ["QVQLVESGGGLVQAGGSLRLSCAASGRTFSVYAMGWYRQAPGKERELVARIRWSSGITYYADSVKGRFTISRDNAKNTVYLQMNSLKPEDTAVYYCAARYYTSATMDYWGQGTQVTVSS", "high polyreactivity"],
  ["QVQLEESGGGLVQAGGSLRLSCAASGRIFHKNAMGWYRQAPGKEREFVATISSRGGSTYYADSVKGRFTISRDNSKNTVYLQMNSLKPEDSAVYYCAAGWYRNDWGQRLHTYYYWGQGTQVTVSS", "high polyreactivity"]
]}

Consider the following items and state reported polyreactivity (PSR sort gate) for each.
1. QVQLVESAGGLVQAGGRLRLSCAASGSTFGIYAMGWYRQAPGKERELVAAISSGGSTNYADSVKGRFTISRDNAKNTVYLQMNSLKPEDTAVYYCAVESVYEYGGYVDSAYDYWGQGTQVTVSS
2. QVQLVESGGGLVQAGGSLRLSCADSGFIFGNYAMGWYRQAPGKERELVAGISGSGGSTYYADSVKGRFTISRDNAKNTVYLQMNSLKPEDTAVYYCNAGWHPSQGRFEYWGQGTQVTVSS
3. QVQLVESGGGLLQAGGSLRLTCAASGFTFSLNTMGWYRQAPAKEREFVAAINSGDSTYADSVKGRYTISRDNAKNTVYLQMNSLKPEDTAVYYCNADPDWWYPYNYWGQGTQVTVSS
4. QVQLVESGGGLVQAGGSLRLSCAASGSIFFSYAMGWYRKAPGKERELVAAIDYSGGGTYYADSVKGRFTISRDNAKNTVYLQMNSLKPEDTAVYYCKSDTEVWADTFISYRALNYWGQGTQVTVSS
5. QVQLEESGGGLVQAGGSLRLSCAASGSIFRSNAMGWYRQAPGKERELVAAISSSGGSTYYADSVKGRFTISRDKAKNTVYLQMNSLKPEDTAVYYCAARPSGRGYYLLGYWGQGTQVTVSS
6. QVQLVESGGGLVQAGGSLRLSCAASGSILIPNAMGWYRQAPGKERELVASISKSGGSTYYADSVKGRFTISRDNAKNTVYLPKNSLKPEDTAVYYCAAAFVSVRKRYGYWGQGTQVTVSS

["low polyreactivity", "high polyreactivity", "low polyreactivity", "low polyreactivity", "low polyreactivity", "high polyreactivity"]

Consider the following items and state reported polyreactivity (PSR sort gate) for each.
1. QVHLVESGGGLVQAGGSLRLSCDASGSTFLSNAMGWYRQAPGKERELVAAITTSGTSTFYADSVKGRFTISRDTAKNTVYLQMNSLKPEDTAVYCAKDYLPYLHFVAPSTGDYDYWGQGTQVTVSS
2. QGQLVESGGGLVQAGGSLRLSCAASGITFYSYAMGWYRQAPGKERELVAAITLTGGTTYYADSVKGRFTISRDNAKNTVYLQMNSLKPEDTAVYYCNSDYGGGVDGTYKYYSEYDYWGQGTQVTVSS
3. QVQLVESGGGLVQAGGSLRLSCAASGRTFWYYAMGWYRQAPGKEREFVAAISWSGGSTYYADSVKGRFTISRDNAKNTVYLQMNTLKPEDSAVYYCAASPVWWYDYWGQGTQVTVSS
4. QVQLVESGGGLVQAGGSLRLSCAASGLIFVAFAMGWYRQAPGKERELVAAISRSGGSTYYADSVKGRFTISRDNAKNTVYLQMNSLKPEDTAVYYCAKYYGARHVDDDYWGQGTQVTVSS
5. QVQLVESGGGLVQAGGSLRLSCAASGRTFFWYAMGWYRQAPGKERELVAGISRGGRTNYADSVKGRFTISRDNAKNTVYLQMNSLKPEDTAVYYCAADSWLTYFLGTSEHYYWGQGTQVTVSS

["low polyreactivity", "low polyreactivity", "low polyreactivity", "high polyreactivity", "high polyreactivity"]
